Recorded measurements of hERG current change (%, negative = inhibition) at 10uM, one per entry
target_or_system: human ether-à-go-go-related gene (hERG) potassium channel (human, UniProt Q12809);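 also: peak tail current of the secondary pulse compared with the same well before compound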
Sequence (Q12809 whole entry, looked up): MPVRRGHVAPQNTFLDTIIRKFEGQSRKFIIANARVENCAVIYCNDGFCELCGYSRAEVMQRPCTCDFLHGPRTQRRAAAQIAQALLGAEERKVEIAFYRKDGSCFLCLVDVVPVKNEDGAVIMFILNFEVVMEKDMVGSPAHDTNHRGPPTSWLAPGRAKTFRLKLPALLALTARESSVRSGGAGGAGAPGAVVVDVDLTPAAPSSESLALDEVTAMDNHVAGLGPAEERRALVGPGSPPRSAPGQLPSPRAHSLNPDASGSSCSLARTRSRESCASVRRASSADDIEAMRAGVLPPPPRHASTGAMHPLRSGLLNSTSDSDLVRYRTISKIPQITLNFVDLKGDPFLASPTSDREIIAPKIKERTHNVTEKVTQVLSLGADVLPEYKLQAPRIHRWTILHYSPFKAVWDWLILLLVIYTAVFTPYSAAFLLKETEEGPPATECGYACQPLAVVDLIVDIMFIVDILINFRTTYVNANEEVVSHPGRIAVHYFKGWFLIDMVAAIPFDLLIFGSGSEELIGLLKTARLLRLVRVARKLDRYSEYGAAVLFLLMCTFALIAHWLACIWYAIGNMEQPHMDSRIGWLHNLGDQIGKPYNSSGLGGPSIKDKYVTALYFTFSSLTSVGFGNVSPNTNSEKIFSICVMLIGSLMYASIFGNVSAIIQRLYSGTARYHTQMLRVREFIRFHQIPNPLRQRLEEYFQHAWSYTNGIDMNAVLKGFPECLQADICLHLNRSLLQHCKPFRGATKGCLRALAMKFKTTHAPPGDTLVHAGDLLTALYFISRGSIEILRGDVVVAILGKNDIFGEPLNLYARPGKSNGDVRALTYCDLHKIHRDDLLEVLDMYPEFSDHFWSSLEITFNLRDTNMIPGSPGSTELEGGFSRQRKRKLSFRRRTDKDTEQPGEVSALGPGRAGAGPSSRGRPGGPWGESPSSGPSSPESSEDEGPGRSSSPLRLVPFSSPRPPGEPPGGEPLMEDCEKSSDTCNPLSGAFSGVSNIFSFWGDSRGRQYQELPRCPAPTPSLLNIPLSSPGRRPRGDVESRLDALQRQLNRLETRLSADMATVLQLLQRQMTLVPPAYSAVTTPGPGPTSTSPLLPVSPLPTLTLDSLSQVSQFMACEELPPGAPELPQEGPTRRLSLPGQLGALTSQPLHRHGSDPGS
experiment: primary screen, population patch clamp on CHO cells stably expressing hERG; higher = less effect of the substance
Description: Briefly, Chinese hamster ovary (CHO) cells stably expressing the hERG channel were dislodged from tissue culture flasks and dispensed into PPC plates. […] During the recording, background leak currents were estimated by a 100 ms step to -80 mV from an initial holding potential of -70 mV and subtracted from the subsequent current measurement. The campaign was conducted in two phases using slight differences in recording protocol. […]
In all, about 310,000 compounds went through this assay and about 14,000 (4.5%) showed an effect of 50% or more. The effect is printed as a negative number. The full list was thinned out, with strong results kept by preference.
result_type: hERG current change (%, negative = inhibition) at 10uM

1. CN(Cc1ccccc1)Cc1nc2c(c(=O)n(C)c(=O)n2C)n1CCCc1ccccc1 = -50.3%
2. CCc1ccc(NC(=O)c2ccc3c(=O)n4c(nc3c2)CCCCC4)cc1 = -46.8%
3. CCCn1c(CN(C)Cc2ccccc2)nc2c1c(=O)n(C)c(=O)n2C = -23.4%
4. COCCn1c(CN(Cc2ccccc2)Cc2ccccc2)nc2c1c(=O)n(C)c(=O)n2C = -62.8%
5. CN(Cc1ccccc1)Cc1nc2c(c(=O)n(C)c(=O)n2C)n1Cc1ccc(Cl)cc1 = -30.1%
6. CN(Cc1ccccc1)Cc1nc2c(c(=O)n(C)c(=O)n2C)n1Cc1ccc(F)cc1 = -55.6%
7. CC(=O)c1cccc(NC(=O)c2ccc3c(=O)n4c(nc3c2)CCCCC4)c1 = -75.5%
8. COc1ccc(NC(=O)c2ccc3c(=O)n4c(nc3c2)CCCCC4)cc1 = -40%
9. CCc1ccc(C(=O)NNC(=O)c2ccc3c(=O)n4c(nc3c2)CCC4)cc1 = 5.5%

---

target_or_system: human ether-à-go-go-related gene (hERG) potassium channel (human, UniProt Q12809);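 also: peak tail current of the secondary pulse compared with the same well before compound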
experiment: primary screen, population patch clamp on CHO cells stably expressing hERG; higher = less effect of the substance
Hit rate of the full screen: of about 310,000 compounds, about 14,000 (4.5%) showed an effect of 50% or more. Effects have a minus sign here. The sample holds strong results, similar compounds and a random draw of the others, so the mix is not that of the screen.
result_type: hERG current change (%, negative = inhibition) at 10uM (%)

1) Cc1ccc(NC(/C=C/N(C)C)=C/C(=O)C(F)(F)F)c(C)c1 = -56.7
2) COc1cc(CNc2ncc(-c3ccc(Br)cc3)n2C)cc(OC)c1O.O=C(O)C(=O)O = -60.5
3) COc1cc(NC(=O)c2cc3ccccc3o2)c(OC)cc1Cl = 16.3
4) CN(C)/C=C\C(=C/C(=O)C(F)(F)F)Nc1ccccc1Oc1ccccc1 = -24.4
5) CC(NC(=O)CSc1nc2ccc(N)cc2s1)c1ccccc1 (stereo not drawn) = 32
6) FC(F)(F)Oc1ccc(NC(=S)NCc2ccccc2)cc1 = 4.62
7) CN(C)/C=C/C(=C\C(=O)C(F)(F)F)Nc1ccc(C(F)(F)F)cc1 = 2.83
8) Cn1c(-c2ccc(F)cc2)cnc1NCc1cc2c(cc1[N+](=O)[O-])OCO2.O=C(O)C(=O)O = -57.8
9) CCOc1cc(CNc2ncc(-c3ccc(OC)cc3)n2C)ccc1O.O=C(O)C(=O)O = -48.3
